read-out: Bcl-2 (BAX) gene, BAX (gene 581); assay: LTEA_HepaRG_BAX: Life Technologies and Expression Analysis (LTEA) Assay for Bcl-2 (BAX) gene using HepaRG (AID 2283470); details: mRNA level, 48 h; actives raise or lower the signal
Calls of active or inactive are those of the source. Rule for the calls: active = hit-call score of the fitted dose curve at least 0.9, where 1 is the maximum; inactive = score below 0.9.
Please answer using one outcome listed in t = active, f = inactive

> print(dat)
                                 smiles.str  label.value
1  NC(=O)c1nc(-c2cccc(-c3cc(F)ccc3OCC(F)(F)C(F)(F)F)c2)n[nH]1            f
2                     CCCCOC(=O)c1ccc(O)cc1            f
3  O=C1c2ccccc2C(=O)N1CCc1noc(-c2ccc(CN3CCCCCC3)s2)n1            f

Assay result, entry CCN(CC)C(=O)c1cc(S(=O)(=O)Cc2ccccc2)c(N2CCC(c3ccccc3)CC2)cc1N(CC)CCN(C)C — outcome?
f

Hi, do you know how Cc1cc(F)ccc1-c1cc(N2CC[C@@H](O)[C@H]2CO)ncc1N(C)C(=O)C(C)(C)c1cc(C(F)(F)F)cc(C(F)(F)F)c1 came out in this test?
t

Please let me know the test result on file for CN1C(=O)CC[C@H]1c1cccnc1 .
f

Call for entry CC(C)(C)c1csc(-c2cc3cc(OCc4ccccc4CC(=O)O)ccc3o2)n1 :
f

GET /call?item= c1ccc(C[n+]2cccc3ccccc32)cc1 returns the recorded outcome of this test.
t

Each compound tested received a call. Report the one for Clc1cc(Cl)c2c(c1)N=C1CCCCCN1C2 .
f

Called result for CCCCCCCCCC(=O)O
f

Status in this test for O=C(O)c1ccccc1C(=O)OCc1ccccc1 ?
f

---

test: APR_HepG2_MitoticArrest_72hr: Apredica 72-hour HepG2 Assay for Mitotic Arrest (AID 2282918); details: high-content imaging, actives raise or lower the signal
The source made the active and inactive calls. The calls were made as follows: active = hit-call score of the fitted dose curve at least 0.9, where 1 is the maximum; inactive = score below 0.9.
Pick one and only one: 1.0 for active, 0.0 for inactive

Look over these answered cases.
> print(dat)
                                   compound  label.value
1                 CCCCCCCC[Si](OCC)(OCC)OCC          1.0
2  NC(=O)c1nc(-c2cccc(-c3cc(F)ccc3OCC(F)(F)C(F)(F)F)c2)n[nH]1          0.0
3  C[C@]12CC[C@@H]3c4ccc(O)cc4CC[C@H]3[C@@H]1CC[C@H]2O          0.0
4                      O=C1CCC(C2CCCCC2)CC1          0.0
5              CC1=CC(=O)/C(=C(/C)O)C(=O)O1          0.0

With those in mind, consider the next compound.
In this assay, the call recorded for CCCCCc1ccc(N)cc1 was what?
0.0

---

experiment: ATG_DR4_LXR_CIS: Attagene CIS-FACTORIAL HepG2 Assay for human Liver X Receptor (LXR), DR4 submotif (AID 2282929); conditions: HepG2 Attagene DR4 cis-reporter, mRNA transcription; actives raise or lower the signal
Calls of active or inactive are those of the source. The calls were made as follows: active = hit-call score of the fitted dose curve at least 0.9, where 1 is the maximum; inactive = score below 0.9.
Can you answer with just one of these options? true for active, false for inactive

Here's what some known entries look like.
> print(dat)
                                   compound  label.value
1  Cc1occc1C(=O)Nc1ccc(C(=O)N2CCC(F)(F)/C(=C\C(=O)N3CCC(N4CCCCC4)CC3)c3ccccc32)cc1         true
2  COc1cccc([C@H](O)C2CCN(CCc3ccc(F)cc3)CC2)c1OC         true
3                CCCOC(=O)c1cc(O)c(O)c(O)c1        false
4                             CCCCCCCCCCCCO        false
5  OC12N=C(c3ccccc3)SC1Cc1cc(Cl)ccc12 (configuration not stated)        false

Each compound tested received a call. Report the one for Cc1oc2c(NC(=O)c3c(Cl)cccc3Cl)cccc2c1C(C)(C)O .
false

Recorded test outcome, item CCO[Si](CCCNC(N)=O)(OCC)OCC
false

Kindly provide the recorded test outcome for the following compound: CCCCCCCC[Si](OCC)(OCC)OCC
true

Name the outcome recorded for Clc1cc(Cl)c2c(c1)N=C1CCCCCN1C2 in the assay.
true

Please state the recorded outcome for this compound: CCCCCCCCN(C)CCCCCCCC
false

Recorded test outcome, item Cc1cn([C@H]2C[C@H](N=[N+]=[N-])[C@@H](CO)O2)c(=O)[nH]c1=O
false

What outcome does the record of this test show for C[C@]12CC[C@@H]3c4ccc(O)cc4CC[C@H]3[C@@H]1CC[C@H]2O ?
false
